test system: MV4-11 cell line; experiment: Antiproliferative MTT assay, MV4-11; format: cell-based; conditions: Homo sapiens, MV4-11, read-out: Anti-proliferative IC50 MV4-11
assay-endpoint: IC50 (µM)
One number for each entry, in µM.

• Nc1ncnc2c1ncn2CCN1C(=O)C(=O)c2cc(Cl)ccc21 [7b] = 11.8

Let us move to another entry and its IC50.
Prompt: Which IC50 value is on record for O=C1C(=O)N(CCn2ncc3c(=O)[nH]cnc32)c2ccc(Cl)cc21 [6b] ?
Response: 5.85

----------
VEGFR-2 (Homo sapiens) measurements of pIC50, listed per entry.
Sequence (P35968 20-1356): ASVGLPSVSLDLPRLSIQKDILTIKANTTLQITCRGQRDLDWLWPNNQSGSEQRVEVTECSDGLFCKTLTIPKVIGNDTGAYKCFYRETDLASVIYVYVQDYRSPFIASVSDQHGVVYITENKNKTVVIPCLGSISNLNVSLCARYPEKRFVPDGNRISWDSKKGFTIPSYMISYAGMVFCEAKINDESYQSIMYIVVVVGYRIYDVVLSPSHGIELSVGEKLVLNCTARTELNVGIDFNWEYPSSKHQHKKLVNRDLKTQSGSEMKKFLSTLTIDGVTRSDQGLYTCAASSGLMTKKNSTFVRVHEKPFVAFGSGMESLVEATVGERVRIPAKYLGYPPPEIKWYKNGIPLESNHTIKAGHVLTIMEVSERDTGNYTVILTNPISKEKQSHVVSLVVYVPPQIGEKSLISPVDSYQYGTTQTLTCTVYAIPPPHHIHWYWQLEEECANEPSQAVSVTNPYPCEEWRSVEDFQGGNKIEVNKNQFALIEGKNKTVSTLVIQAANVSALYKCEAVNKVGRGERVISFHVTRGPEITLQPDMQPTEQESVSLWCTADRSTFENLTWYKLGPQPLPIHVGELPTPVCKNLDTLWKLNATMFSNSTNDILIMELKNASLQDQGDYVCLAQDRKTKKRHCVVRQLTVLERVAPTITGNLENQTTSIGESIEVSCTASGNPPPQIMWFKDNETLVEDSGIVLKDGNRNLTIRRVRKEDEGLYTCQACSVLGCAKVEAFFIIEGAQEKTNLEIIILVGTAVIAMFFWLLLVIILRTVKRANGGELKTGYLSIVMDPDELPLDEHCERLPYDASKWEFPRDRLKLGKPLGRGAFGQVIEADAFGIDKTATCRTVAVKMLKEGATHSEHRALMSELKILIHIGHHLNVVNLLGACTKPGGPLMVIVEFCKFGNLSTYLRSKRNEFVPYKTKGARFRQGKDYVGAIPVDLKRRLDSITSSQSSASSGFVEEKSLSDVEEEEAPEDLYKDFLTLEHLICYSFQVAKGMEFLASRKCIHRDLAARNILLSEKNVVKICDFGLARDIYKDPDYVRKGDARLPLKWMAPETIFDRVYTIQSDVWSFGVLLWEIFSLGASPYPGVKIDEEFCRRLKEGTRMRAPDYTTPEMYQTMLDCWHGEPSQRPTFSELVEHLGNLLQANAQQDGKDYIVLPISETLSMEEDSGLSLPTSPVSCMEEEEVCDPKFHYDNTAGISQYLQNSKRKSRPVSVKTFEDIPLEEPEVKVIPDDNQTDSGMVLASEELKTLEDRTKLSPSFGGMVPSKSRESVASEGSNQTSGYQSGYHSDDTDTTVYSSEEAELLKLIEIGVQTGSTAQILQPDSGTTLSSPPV
Answers are plain numbers, as −log10 of the molar value.

Examples from the recorded data:
• O=C1C(=O)N(CCn2ncc3c(=O)[nH]cnc32)c2ccccc21 = 6.51
• Nc1ncnc2c1ncn2CCN1C(=O)C(=O)c2cc(Cl)ccc21 = 6.29

Let us move to another entry and its pIC50.
Prompt: Which pIC50 value is on record for `NC(=S)N/N=C1\C(=O)N(CCn2ncc3c(=O)[nH]cnc32)c2ccc(Cl)cc21` ?
Response: 7.15

----------
biological target: CDK6/Cyclin D3 (Homo sapiens); assay: In vitro CDK6 inhibitory assay
Sequence (Q00534 whole entry): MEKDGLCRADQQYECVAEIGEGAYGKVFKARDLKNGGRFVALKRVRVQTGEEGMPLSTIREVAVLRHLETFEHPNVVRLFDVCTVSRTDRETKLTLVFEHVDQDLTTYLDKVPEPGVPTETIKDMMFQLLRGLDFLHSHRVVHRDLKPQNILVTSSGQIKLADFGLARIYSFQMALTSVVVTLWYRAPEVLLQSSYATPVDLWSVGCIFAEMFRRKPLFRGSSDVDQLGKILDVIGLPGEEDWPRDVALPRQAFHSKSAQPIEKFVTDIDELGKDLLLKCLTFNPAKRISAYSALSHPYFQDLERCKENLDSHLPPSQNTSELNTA
Sequence (P30281 whole entry partner): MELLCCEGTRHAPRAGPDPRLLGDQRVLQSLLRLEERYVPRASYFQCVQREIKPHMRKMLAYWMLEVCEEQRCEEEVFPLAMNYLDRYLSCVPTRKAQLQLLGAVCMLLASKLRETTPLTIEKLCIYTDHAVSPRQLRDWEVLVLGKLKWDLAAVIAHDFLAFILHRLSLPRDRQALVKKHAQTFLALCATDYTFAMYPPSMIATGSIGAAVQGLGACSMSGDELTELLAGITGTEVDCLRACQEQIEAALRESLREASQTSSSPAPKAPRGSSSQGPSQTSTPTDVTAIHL
assay-endpoint: IC50 (µM)
Give bare numbers, in µM.

Examples from the recorded data:
- O=C1C(=O)N(CCn2ncc3c(=O)[nH]cnc32)c2ccccc21: 0.603
- NC(=S)N/N=C1\C(=O)N(CCn2ncc3c(=O)[nH]cnc32)c2ccc(Cl)cc21: 0.0676

Let us move to another entry and its IC50.
Prompt: Which IC50 value is on record for `Nc1ncnc2c1ncn2CCN1C(=O)C(=O)c2cc(Cl)ccc21` ?
Response: 1.51

----------
biological target: xanthine oxidase (XO) (Homo sapiens, UniProt P47989)
Sequence (P47989 whole entry, species assumed): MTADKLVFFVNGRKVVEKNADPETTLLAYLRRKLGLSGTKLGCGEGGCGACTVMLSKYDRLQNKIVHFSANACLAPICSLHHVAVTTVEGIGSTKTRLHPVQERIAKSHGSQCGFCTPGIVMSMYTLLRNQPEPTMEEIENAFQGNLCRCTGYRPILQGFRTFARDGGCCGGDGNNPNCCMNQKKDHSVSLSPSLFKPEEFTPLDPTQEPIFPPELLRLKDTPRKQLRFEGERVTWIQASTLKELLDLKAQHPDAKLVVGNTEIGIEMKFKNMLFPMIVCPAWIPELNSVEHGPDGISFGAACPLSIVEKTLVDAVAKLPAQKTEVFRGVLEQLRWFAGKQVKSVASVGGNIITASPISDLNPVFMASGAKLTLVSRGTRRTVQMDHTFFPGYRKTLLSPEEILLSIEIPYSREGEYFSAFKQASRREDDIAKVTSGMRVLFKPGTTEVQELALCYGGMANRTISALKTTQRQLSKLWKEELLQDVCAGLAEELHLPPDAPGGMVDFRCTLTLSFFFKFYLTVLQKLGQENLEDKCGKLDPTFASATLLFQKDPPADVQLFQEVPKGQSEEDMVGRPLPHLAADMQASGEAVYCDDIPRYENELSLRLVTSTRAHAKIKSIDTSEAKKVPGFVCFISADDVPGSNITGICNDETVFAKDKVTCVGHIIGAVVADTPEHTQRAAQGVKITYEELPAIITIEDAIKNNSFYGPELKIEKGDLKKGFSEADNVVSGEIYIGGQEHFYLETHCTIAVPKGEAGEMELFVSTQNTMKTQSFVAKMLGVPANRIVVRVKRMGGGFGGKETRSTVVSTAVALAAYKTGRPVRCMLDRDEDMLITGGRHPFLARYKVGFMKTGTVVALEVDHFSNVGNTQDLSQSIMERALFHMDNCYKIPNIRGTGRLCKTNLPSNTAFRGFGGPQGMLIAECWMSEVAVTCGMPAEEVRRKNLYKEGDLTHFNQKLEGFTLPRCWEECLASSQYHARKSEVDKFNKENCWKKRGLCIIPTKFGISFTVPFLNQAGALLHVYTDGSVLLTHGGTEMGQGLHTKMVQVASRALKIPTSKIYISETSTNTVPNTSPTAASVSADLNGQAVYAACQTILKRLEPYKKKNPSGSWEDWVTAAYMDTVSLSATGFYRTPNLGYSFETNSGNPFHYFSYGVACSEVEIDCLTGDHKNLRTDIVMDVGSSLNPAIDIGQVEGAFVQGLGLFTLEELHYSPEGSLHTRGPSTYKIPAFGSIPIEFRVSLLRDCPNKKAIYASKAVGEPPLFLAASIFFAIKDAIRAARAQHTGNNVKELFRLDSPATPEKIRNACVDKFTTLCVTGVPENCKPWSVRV
assay-endpoint: pIC50
Give bare numbers, as −log10 of the molar value.

Examples from the recorded data:
• O=C1C(=O)N(CCn2ncc3c(=O)[nH]cnc32)c2ccccc21 = 4.36
• Nc1ncnc2c1ncn2CCN1C(=O)C(=O)c2cc(Cl)ccc21 = 4.18

Prompt: Reported pIC50 for xanthine oxidase (XO) (Homo sapiens, UniProt P47989), given `NC(=S)N/N=C1\C(=O)N(CCn2ncc3c(=O)[nH]cnc32)c2ccc(Cl)cc21` ?
Response: 4.66
